Species: Rattus norvegicus
Assay: Open TG-GATES - Regimen: Single
Assay type: toxicity, organism-based, Sprague-Dawley
Parameters: regimen Single, gender Male, age 6 weeks
Condition context: in vivo, po, 0 mg/kg, 6 h, tissue Blood, route gavage, dose level Control
Threshold-based label: Ret under 8% gives True, Ret not under 8% gives False.

// known answers, use as guide
>>> answer_label("CN(C)CCC=C1c2ccccc2CCc2ccccc21")
"False"
>>> answer_label("C[C@H](CS)C(=O)N1CCC[C@H]1C(=O)O")
"True"
>>> answer_label("NC(=O)N/N=C/c1ccc([N+](=O)[O-])o1")
"False"
>>> answer_label("COc1ccc(Cc2nccc3cc(OC)c(OC)cc23)cc1OC")
"True"
>>> answer_label("NC(=O)N1c2ccccc2C=Cc2ccccc21 [CARBAMAZEPINE]")
"True"
>>> answer_label("Cn1c(=O)c2[nH]cnc2n(C)c1=O.O")
"True"

Enquiry: A record lists `O=C(O)c1cc(/N=N/c2ccc(S(=O)(=O)Nc3ccccn3)cc2)ccc1O` . Is its Ret below 8%?
Return: True

Enquiry: A record lists `Clc1ccccc1CN1CCc2sccc2C1` . Is its Ret below 8%?
Return: True

Enquiry: A record lists CSc1ccc2c(c1)N(CCC1CCCCN1C)c1ccccc1S2 (configuration not stated) . Is its Ret below 8%?
Return: True

Enquiry: A record lists `O=C(O)c1cn(C2CC2)c2cc(N3CCNCC3)c(F)cc2c1=O` . Is its Ret below 8%?
Return: False
